- Tested on: Staphylococcus aureus
- METHOD_DESCRIPTION: Antibiofilm activity against methicillin-resistant Staphylococcus aureus assessed as inhibition of biofilm formation incubated for overnight by crystal violet staining based microtiter plate assay
- Assay type: functional, organism-based
Non-standard residues stand in square brackets, D forms with d. Residues, ends and D or L forms follow the SMILES beside them. hArg = N=C(N)NCCCC[C@H](N)C(=O)O; Orn = NCCC[C@H](N)C(=O)O

{"columns": ["COMPOUND", "inhibition"],
 "data": [
  ["CC[C@H](C)[C@H](NC(=O)[C@H](CCCNC(=N)N)NC(=O)[C@@H](NC(=O)[C@H](C)NC(=O)[C@@H](NC(=O)[C@@H](NC(=O)[C@H](CC(C)C)NC(=O)[C@H](CCCNC(=N)N)NC(=O)[C@@H](N)C(C)C)[C@@H](C)CC)C(C)C)C(C)C)C(=O)N[C@@H](CCCCNC(=N)N)C(=O)N[C@@H](CCCNC(=N)N)C(=O)N[C@@H](CCCNC(=N)N)C(N)=O (H-VRLIVAVRI[hArg]RR-NH2)", "Dose-dependent effect"],
  ["CC[C@H](C)[C@H](NC(=O)[C@H](CCCNC(=N)N)NC(=O)[C@@H](NC(=O)[C@H](C)NC(=O)[C@@H](NC(=O)[C@@H](NC(=O)[C@H](CC(C)C)NC(=O)[C@H](CCCNC(=N)N)NC(=O)[C@@H](N)C(C)C)[C@@H](C)CC)C(C)C)C(C)C)C(=O)N[C@@H](Cc1c[nH]c2ccccc12)C(=O)N[C@@H](CCCN)C(=O)N[C@@H](CCCNC(=N)N)C(N)=O (H-VRLIVAVRIW[Orn]R-NH2)", "Dose-dependent effect"]
]}

---

Answer each item with its documented residual biofilm growth (% of control).
- System: Staphylococcus aureus
- METHOD_DESCRIPTION: Antibiofilm activity against methicillin-resistant Staphylococcus aureus assessed as inhibition of biofilm formation by measuring residual biofilm growth incubated for overnight at 10-fold dilution by crystal violet staining based microtiter plate assay relative to control
- Type: functional
Non-standard residues stand in square brackets, D forms with d. Residues, ends and D or L forms follow the SMILES beside them. Agp = N=C(N)NC[C@H](N)C(=O)O; Dab = NCC[C@H](N)C(=O)O
Answers are plain numbers, in %.

{"columns": ["COMPOUND", "RESULT_UNITS", "residual biofilm growth (% of control)"],
 "data": [
  ["CC[C@H](C)[C@H](NC(=O)[C@H](CC(C)C)NC(=O)[C@H](CCCNC(=N)N)NC(=O)[C@@H](N)C(C)C)C(=O)N[C@H](C(=O)N[C@@H](C)C(=O)N[C@H](C(=O)N[C@@H](CCCNC(=N)N)C(=O)N[C@@H](CNC(=N)N)C(=O)N[C@@H](Cc1c[nH]c2ccccc12)C(=O)N[C@@H](CCCNC(=N)N)C(=O)N[C@@H](CCCNC(=N)N)C(N)=O)C(C)C)C(C)C (H-VRLIVAVR[Agp]WRR-NH2)", "%", 104.1]
]}

// field: residual biofilm growth (% of control); key: CC[C@H](C)[C@H](NC(=O)[C@H](CCCNC(=N)N)NC(=O)[C@@H](NC(=O)[C@H](C)NC(=O)[C@@H](NC(=O)[C@@H](NC(=O)[C@H](CC(C)C)NC(=O)[C@H](CCN)NC(=O)[C@@H](N)C(C)C)[C@@H](C)CC)C(C)C)C(C)C)C(=O)N[C@@H](Cc1c[nH]c2ccccc12)C(=O)N[C@@H](CCCNC(=N)N)C(=O)N[C@@H](CCCNC(=N)N)C(N)=O (H-V[Dab]LIVAVRIWRR-NH2) ; value = 21.5

---

- Test system: Staphylococcus aureus
- METHOD_DESCRIPTION: Antibacterial activity against methicillin-resistant Staphylococcus aureus assessed as bacterial growth inhibition in MHB medium measured after overnight incubation by CLSI protocol based broth dilution method
- Format: functional
Give MIC for every item shown.
Numbers only, in µM.

{"columns": ["SUBSTANCE", "MIC [µM]"],
 "data": [
  ["H-VRLIVKVRIWRR-NH2", 4],
  ["H-VRLIVRVRIWRR-NH2", 2],
  ["H-VRLIVAVRIWRR-NH2", 4]
]}

State the recorded MIC for every item in the following list.
1. H-VKLIVKVKIWKK-NH2
2. H-VKLIVAVKIWKK-NH2

Response line:
1: 4; 2: 4

---

Field: residual biofilm growth (% of control). Provide a value for each of the molecules that follow.
- Test system: Staphylococcus aureus
- METHOD_DESCRIPTION: Antibiofilm activity against methicillin-resistant Staphylococcus aureus assessed as inhibition of biofilm formation by measuring residual biofilm growth incubated for overnight at 10-fold dilution by crystal violet staining based microtiter plate assay relative to control
- Type: functional
Non-standard residues stand in square brackets, D forms with d. Residues, ends and D or L forms follow the SMILES beside them. hArg = N=C(N)NCCCC[C@H](N)C(=O)O; Agp = N=C(N)NC[C@H](N)C(=O)O; Orn = NCCC[C@H](N)C(=O)O; Dab = NCC[C@H](N)C(=O)O
Give bare numbers, in %.

List the reported residual biofilm growth (% of control) of each molecule below.
1. CC[C@H](C)[C@H](NC(=O)[C@H](CCCNC(=N)N)NC(=O)[C@@H](NC(=O)[C@H](C)NC(=O)[C@@H](NC(=O)[C@@H](NC(=O)[C@H](CC(C)C)NC(=O)[C@H](CCCNC(=N)N)NC(=O)[C@@H](N)CCCCNC(=N)N)[C@@H](C)CC)C(C)C)C(C)C)C(=O)N[C@@H](Cc1c[nH]c2ccccc12)C(=O)N[C@@H](CCCNC(=N)N)C(=O)N[C@@H](CCCNC(=N)N)C(N)=O (H-[hArg]RLIVAVRIWRR-NH2)
2. CC[C@H](C)[C@H](NC(=O)[C@H](CC(C)C)NC(=O)[C@H](CCCNC(=N)N)NC(=O)[C@@H](N)C(C)C)C(=O)N[C@H](C(=O)N[C@@H](C)C(=O)N[C@H](C(=O)N[C@@H](CCCNC(=N)N)C(=O)N[C@@H](CCCN)C(=O)N[C@@H](Cc1c[nH]c2ccccc12)C(=O)N[C@@H](CCCNC(=N)N)C(=O)N[C@@H](CCCNC(=N)N)C(N)=O)C(C)C)C(C)C (H-VRLIVAVR[Orn]WRR-NH2)
3. CC[C@H](C)[C@H](NC(=O)[C@H](CCCNC(=N)N)NC(=O)[C@H](CCCCNC(=N)N)NC(=O)[C@H](C)NC(=O)[C@@H](NC(=O)[C@@H](NC(=O)[C@H](CC(C)C)NC(=O)[C@H](CCCNC(=N)N)NC(=O)[C@@H](N)C(C)C)[C@@H](C)CC)C(C)C)C(=O)N[C@@H](Cc1c[nH]c2ccccc12)C(=O)N[C@@H](CCCNC(=N)N)C(=O)N[C@@H](CCCNC(=N)N)C(N)=O (H-VRLIVA[hArg]RIWRR-NH2)
4. CC[C@H](C)[C@H](NC(=O)[C@H](CCCNC(=N)N)NC(=O)[C@@H](NC(=O)[C@H](C)NC(=O)[C@@H](NC(=O)[C@@H](NC(=O)[C@H](CC(C)C)NC(=O)[C@H](CCCNC(=N)N)NC(=O)[C@@H](N)C(C)C)[C@@H](C)CC)C(C)C)C(C)C)C(=O)N[C@@H](CNC(=N)N)C(=O)N[C@@H](CCCNC(=N)N)C(=O)N[C@@H](CCCNC(=N)N)C(N)=O (H-VRLIVAVRI[Agp]RR-NH2)
5. CC[C@H](C)[C@H](NC(=O)[C@H](CCCNC(=N)N)NC(=O)[C@@H](NC(=O)[C@H](C)NC(=O)[C@@H](NC(=O)[C@@H](NC(=O)[C@H](CC(C)C)NC(=O)[C@H](CCCNC(=N)N)NC(=O)[C@@H](N)C(C)C)[C@@H](C)CC)C(C)C)C(C)C)C(=O)N[C@@H](CCN)C(=O)N[C@@H](CCCNC(=N)N)C(=O)N[C@@H](CCCNC(=N)N)C(N)=O (H-VRLIVAVRI[Dab]RR-NH2)

Response line:
1: 17.1; 2: 79.3; 3: 107; 4: 102.9; 5: 90.8

---

- Test system: Staphylococcus aureus
- METHOD_DESCRIPTION: Antibiofilm activity against methicillin-resistant Staphylococcus aureus assessed as inhibition of biofilm formation incubated for overnight by crystal violet staining based microtiter plate assay
- Assay type: functional, organism-based
Non-standard residues stand in square brackets, D forms with d. Residues, ends and D or L forms follow the SMILES beside them. hArg = N=C(N)NCCCC[C@H](N)C(=O)O; Agb = N=C(N)NCC[C@H](N)C(=O)O; Dab = NCC[C@H](N)C(=O)O

{"columns": ["COMPOUND", "inhibition"],
 "data": [
  ["CC[C@H](C)[C@H](NC(=O)[C@H](CC(C)C)NC(=O)[C@H](CCCNC(=N)N)NC(=O)[C@@H](N)C(C)C)C(=O)N[C@@H](CCNC(=N)N)C(=O)N[C@@H](C)C(=O)N[C@H](C(=O)N[C@@H](CCCNC(=N)N)C(=O)N[C@H](C(=O)N[C@@H](Cc1c[nH]c2ccccc12)C(=O)N[C@@H](CCCNC(=N)N)C(=O)N[C@@H](CCCNC(=N)N)C(N)=O)[C@@H](C)CC)C(C)C (H-VRLI[Agb]AVRIWRR-NH2)", "Dose-dependent effect"],
  ["CC[C@H](C)[C@H](NC(=O)[C@H](CC(C)C)NC(=O)[C@H](CCCNC(=N)N)NC(=O)[C@@H](N)C(C)C)C(=O)N[C@H](C(=O)N[C@@H](C)C(=O)N[C@H](C(=O)N[C@@H](CCCNC(=N)N)C(=O)N[C@@H](CCCCNC(=N)N)C(=O)N[C@@H](Cc1c[nH]c2ccccc12)C(=O)N[C@@H](CCCNC(=N)N)C(=O)N[C@@H](CCCNC(=N)N)C(N)=O)C(C)C)C(C)C (H-VRLIVAVR[hArg]WRR-NH2)", "Dose-dependent effect"],
  ["CC[C@H](C)[C@H](NC(=O)[C@H](CCCNC(=N)N)NC(=O)[C@@H](NC(=O)[C@H](C)NC(=O)[C@@H](NC(=O)[C@@H](NC(=O)[C@H](CC(C)C)NC(=O)[C@H](CCCNC(=N)N)NC(=O)[C@@H](N)C(C)C)[C@@H](C)CC)C(C)C)C(C)C)C(=O)N[C@@H](CCN)C(=O)N[C@@H](CCCNC(=N)N)C(=O)N[C@@H](CCCNC(=N)N)C(N)=O (H-VRLIVAVRI[Dab]RR-NH2)", "Dose-dependent effect"]
]}
